Entry source: ChEMBL document CHEMBL1132056

# TARGET: Carboxypeptidase A1 (Homo sapiens, UniProt P15085)
# Sequence (P15085 whole entry): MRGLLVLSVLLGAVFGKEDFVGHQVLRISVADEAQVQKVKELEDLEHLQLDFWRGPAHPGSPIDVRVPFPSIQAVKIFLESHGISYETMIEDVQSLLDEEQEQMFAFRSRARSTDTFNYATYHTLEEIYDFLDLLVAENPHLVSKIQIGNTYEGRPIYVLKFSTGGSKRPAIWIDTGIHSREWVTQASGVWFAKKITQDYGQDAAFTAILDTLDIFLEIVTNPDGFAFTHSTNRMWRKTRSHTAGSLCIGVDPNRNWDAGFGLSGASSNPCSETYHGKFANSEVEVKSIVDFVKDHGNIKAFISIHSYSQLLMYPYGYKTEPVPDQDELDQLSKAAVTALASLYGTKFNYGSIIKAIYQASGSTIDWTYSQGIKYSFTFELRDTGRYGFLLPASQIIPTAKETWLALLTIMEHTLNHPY
ASSAY_ENDPOINT: Ki (µM)

- O=C(O)C(Cc1ccccc1)CN(O)C(=O)CCc1ccccc1 (stereo not drawn): 1.2

a: O=CN(O)CC(Cc1ccccc1)C(=O)O (stereo not drawn)
b: O=CN(O)C[C@H](Cc1ccccc1)C(=O)O
*Q* Would you kindly point out which of a and b has the smaller Ki figure? Answer by quoting the chosen item's label.
*A* a
